B1: HHH_rd2_0155 (parent)
chain: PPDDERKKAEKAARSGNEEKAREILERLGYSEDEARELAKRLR

# Variants of: B1
# Assay Details: folding stability dG (cDNA display proteolysis); higher = more stable
# Applied Conditions: PBS, room temperature

{"Mutation Descriptor": "A9W", "folding stability dG / kcal/mol": 1.53}
{"Mutation Descriptor": "R27T", "folding stability dG / kcal/mol": 1.47}
{"Mutation Descriptor": "G16H", "folding stability dG / kcal/mol": 1.32}
{"Mutation Descriptor": "E18R", "folding stability dG / kcal/mol": 0.996}
{"Mutation Descriptor": "R41K", "folding stability dG / kcal/mol": 1.98}
{"Mutation Descriptor": "E5A", "folding stability dG / kcal/mol": 1.86}
{"Mutation Descriptor": "P1A", "folding stability dG / kcal/mol": 2.22}
{"Mutation Descriptor": "A13F", "folding stability dG / kcal/mol": 1.5}
{"Mutation Descriptor": "G29S", "folding stability dG / kcal/mol": 0.474}
{"Mutation Descriptor": "N17S", "folding stability dG / kcal/mol": 1.4}
{"Mutation Descriptor": "R41C", "folding stability dG / kcal/mol": 1.92}
{"Mutation Descriptor": "A12W", "folding stability dG / kcal/mol": 2.4}
{"Mutation Descriptor": "K11R", "folding stability dG / kcal/mol": 2.47}
{"Mutation Descriptor": "G16T", "folding stability dG / kcal/mol": 0.813}
{"Mutation Descriptor": "E18S", "folding stability dG / kcal/mol": 1.37}
{"Mutation Descriptor": "E26A", "folding stability dG / kcal/mol": 1.73}
{"Mutation Descriptor": "D3P", "folding stability dG / kcal/mol": 1.89}
{"Mutation Descriptor": "A9H", "folding stability dG / kcal/mol": 1.18}
{"Mutation Descriptor": "R14T", "folding stability dG / kcal/mol": 1.41}
{"Mutation Descriptor": "R6S", "folding stability dG / kcal/mol": 1.3}
{"Mutation Descriptor": "R27S", "folding stability dG / kcal/mol": 1.94}
{"Mutation Descriptor": "A35D", "folding stability dG / kcal/mol": 0.38}
{"Mutation Descriptor": "N17Y", "folding stability dG / kcal/mol": 1.71}
{"Mutation Descriptor": "E37R", "folding stability dG / kcal/mol": 2.34}
{"Mutation Descriptor": "D3F", "folding stability dG / kcal/mol": 1.79}
{"Mutation Descriptor": "A21V", "folding stability dG / kcal/mol": 1.27}
{"Mutation Descriptor": "L25A", "folding stability dG / kcal/mol": 0.215}
{"Mutation Descriptor": "R6I", "folding stability dG / kcal/mol": 2.63}
{"Mutation Descriptor": "R41L", "folding stability dG / kcal/mol": 2.04}
{"Mutation Descriptor": "K20I", "folding stability dG / kcal/mol": 1.9}
{"Mutation Descriptor": "A9Q", "folding stability dG / kcal/mol": 0.885}
{"Mutation Descriptor": "P2E", "folding stability dG / kcal/mol": 2.24}
{"Mutation Descriptor": "A35F", "folding stability dG / kcal/mol": 0.989}
{"Mutation Descriptor": "R14D", "folding stability dG / kcal/mol": 1.01}
{"Mutation Descriptor": "A9F", "folding stability dG / kcal/mol": 1.27}
{"Mutation Descriptor": "A9E", "folding stability dG / kcal/mol": 1.03}
{"Mutation Descriptor": "R14S", "folding stability dG / kcal/mol": 1.44}
{"Mutation Descriptor": "K11S", "folding stability dG / kcal/mol": 1.97}
{"Mutation Descriptor": "D4Y", "folding stability dG / kcal/mol": 1.93}
{"Mutation Descriptor": "R43G", "folding stability dG / kcal/mol": 1.48}
{"Mutation Descriptor": "Y30E", "folding stability dG / kcal/mol": 0.197}
{"Mutation Descriptor": "A13E", "folding stability dG / kcal/mol": 0.902}
{"Mutation Descriptor": "A9G", "folding stability dG / kcal/mol": 1.13}
{"Mutation Descriptor": "E18M", "folding stability dG / kcal/mol": 2.61}
{"Mutation Descriptor": "L42C", "folding stability dG / kcal/mol": 1.56}
{"Mutation Descriptor": "K20P", "folding stability dG / kcal/mol": 0.917}
{"Mutation Descriptor": "R41D", "folding stability dG / kcal/mol": 0.97}
{"Mutation Descriptor": "D33N", "folding stability dG / kcal/mol": 1.79}
{"Mutation Descriptor": "D3S", "folding stability dG / kcal/mol": 2.08}
{"Mutation Descriptor": "Y30S", "folding stability dG / kcal/mol": 0.426}
{"Mutation Descriptor": "L28S", "folding stability dG / kcal/mol": 0.685}
{"Mutation Descriptor": "R6N", "folding stability dG / kcal/mol": 1.17}
{"Mutation Descriptor": "R14P", "folding stability dG / kcal/mol": 0.9}
{"Mutation Descriptor": "R43D", "folding stability dG / kcal/mol": 0.613}
{"Mutation Descriptor": "E18T", "folding stability dG / kcal/mol": 1.8}
{"Mutation Descriptor": "S31E", "folding stability dG / kcal/mol": 1.03}
{"Mutation Descriptor": "P2Q", "folding stability dG / kcal/mol": 2.15}
{"Mutation Descriptor": "R14V", "folding stability dG / kcal/mol": 1.75}
{"Mutation Descriptor": "P1W", "folding stability dG / kcal/mol": 2.33}
{"Mutation Descriptor": "S31K", "folding stability dG / kcal/mol": 1.35}
{"Mutation Descriptor": "E10T", "folding stability dG / kcal/mol": 1.82}
{"Mutation Descriptor": "G29A", "folding stability dG / kcal/mol": 0.3}
{"Mutation Descriptor": "G29W", "folding stability dG / kcal/mol": 0.361}
{"Mutation Descriptor": "P2I", "folding stability dG / kcal/mol": 2.25}
{"Mutation Descriptor": "E10A", "folding stability dG / kcal/mol": 2.3}
{"Mutation Descriptor": "A35E", "folding stability dG / kcal/mol": 0.141}
{"Mutation Descriptor": "K40H", "folding stability dG / kcal/mol": 2.39}
{"Mutation Descriptor": "E18L", "folding stability dG / kcal/mol": 2.8}
{"Mutation Descriptor": "L42G", "folding stability dG / kcal/mol": 0.615}
{"Mutation Descriptor": "E26P", "folding stability dG / kcal/mol": -0.06}
{"Mutation Descriptor": "A35R", "folding stability dG / kcal/mol": 0.564}
{"Mutation Descriptor": "E34M", "folding stability dG / kcal/mol": 1.59}
{"Mutation Descriptor": "K20R", "folding stability dG / kcal/mol": 1.89}
{"Mutation Descriptor": "A35I", "folding stability dG / kcal/mol": 1.42}
{"Mutation Descriptor": "K7F", "folding stability dG / kcal/mol": 1.89}
{"Mutation Descriptor": "E19Y", "folding stability dG / kcal/mol": 1.79}
{"Mutation Descriptor": "S15H", "folding stability dG / kcal/mol": 1.83}
{"Mutation Descriptor": "D3M", "folding stability dG / kcal/mol": 2.02}
{"Mutation Descriptor": "P2D", "folding stability dG / kcal/mol": 2.21}
{"Mutation Descriptor": "D3V", "folding stability dG / kcal/mol": 1.85}
{"Mutation Descriptor": "S15A", "folding stability dG / kcal/mol": 2.26}
{"Mutation Descriptor": "G16W", "folding stability dG / kcal/mol": 1.42}
{"Mutation Descriptor": "P1L", "folding stability dG / kcal/mol": 2.24}
{"Mutation Descriptor": "D33W", "folding stability dG / kcal/mol": 1.83}
{"Mutation Descriptor": "E18K", "folding stability dG / kcal/mol": 0.82}
{"Mutation Descriptor": "R22Y", "folding stability dG / kcal/mol": 1.33}
{"Mutation Descriptor": "E5F", "folding stability dG / kcal/mol": 1.88}
{"Mutation Descriptor": "L28A", "folding stability dG / kcal/mol": 1.54}
{"Mutation Descriptor": "E23M", "folding stability dG / kcal/mol": 2.03}
{"Mutation Descriptor": "A12E", "folding stability dG / kcal/mol": 2}
{"Mutation Descriptor": "R22N", "folding stability dG / kcal/mol": 0.74}
